Target: T1, cyno PRLR (Biacore antigen) (cyno, UniProt A0A2K5WXK1 25-234)
T1 construct: also called cyPRLR
T1 sequence: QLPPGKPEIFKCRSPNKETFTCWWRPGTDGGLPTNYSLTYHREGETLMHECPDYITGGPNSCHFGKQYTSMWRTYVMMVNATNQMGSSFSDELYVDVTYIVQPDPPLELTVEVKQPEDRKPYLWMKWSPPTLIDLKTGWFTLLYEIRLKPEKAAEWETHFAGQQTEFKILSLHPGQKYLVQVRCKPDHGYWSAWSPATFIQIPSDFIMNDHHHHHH
Test: SPR Biacore
// values below are reported Kd
READOUT: Kd (nM)

{"BINDER": "chAb7 (antibody, human IgG1, kappa, V domains shown, chimeric, murine variable and human G1/kappa constant regions) VH: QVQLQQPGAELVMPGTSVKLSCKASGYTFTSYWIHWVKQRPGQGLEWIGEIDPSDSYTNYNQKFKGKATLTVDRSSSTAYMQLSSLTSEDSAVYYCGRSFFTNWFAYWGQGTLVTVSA VL: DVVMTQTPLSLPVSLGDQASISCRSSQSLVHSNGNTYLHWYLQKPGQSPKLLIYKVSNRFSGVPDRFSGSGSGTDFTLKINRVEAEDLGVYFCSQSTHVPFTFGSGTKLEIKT", "READOUT": "Kd", "RESULT_UNIT": "nM", "RECORDED_RESULT": 0.154}
{"BINDER": "Ab19 (antibody, human IgG1, kappa, V domains shown, humanized from Ab6; G1; also called Ab1 HC.1a and Ab1 LC.1a) VH: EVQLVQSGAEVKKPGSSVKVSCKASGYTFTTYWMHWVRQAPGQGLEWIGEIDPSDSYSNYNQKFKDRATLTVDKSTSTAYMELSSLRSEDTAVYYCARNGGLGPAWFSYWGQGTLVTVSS VL: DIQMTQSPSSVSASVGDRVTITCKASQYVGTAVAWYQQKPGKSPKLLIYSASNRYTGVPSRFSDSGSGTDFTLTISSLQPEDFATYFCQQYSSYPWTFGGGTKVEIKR", "READOUT": "Kd", "RESULT_UNIT": "nM", "RECORDED_RESULT": 0.691}
{"BINDER": "Ab27 (antibody, human IgG1, kappa, V domains shown, humanized from Ab5; G1; also called Ab2 HC.1 and Ab2 LC.1a) VH: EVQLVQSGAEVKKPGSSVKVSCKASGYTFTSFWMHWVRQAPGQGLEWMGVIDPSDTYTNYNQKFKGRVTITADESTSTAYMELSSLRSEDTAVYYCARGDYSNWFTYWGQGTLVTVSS VL: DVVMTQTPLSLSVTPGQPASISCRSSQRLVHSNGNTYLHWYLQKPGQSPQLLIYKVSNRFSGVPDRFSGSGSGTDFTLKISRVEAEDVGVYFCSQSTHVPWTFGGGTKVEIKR", "READOUT": "Kd", "RESULT_UNIT": "nM", "RECORDED_RESULT": 1.56}
